target.or.test.system: MRP1 (ABCC1), CEM-MRP1 cells (Homo sapiens)
Sequence (P33527 whole entry): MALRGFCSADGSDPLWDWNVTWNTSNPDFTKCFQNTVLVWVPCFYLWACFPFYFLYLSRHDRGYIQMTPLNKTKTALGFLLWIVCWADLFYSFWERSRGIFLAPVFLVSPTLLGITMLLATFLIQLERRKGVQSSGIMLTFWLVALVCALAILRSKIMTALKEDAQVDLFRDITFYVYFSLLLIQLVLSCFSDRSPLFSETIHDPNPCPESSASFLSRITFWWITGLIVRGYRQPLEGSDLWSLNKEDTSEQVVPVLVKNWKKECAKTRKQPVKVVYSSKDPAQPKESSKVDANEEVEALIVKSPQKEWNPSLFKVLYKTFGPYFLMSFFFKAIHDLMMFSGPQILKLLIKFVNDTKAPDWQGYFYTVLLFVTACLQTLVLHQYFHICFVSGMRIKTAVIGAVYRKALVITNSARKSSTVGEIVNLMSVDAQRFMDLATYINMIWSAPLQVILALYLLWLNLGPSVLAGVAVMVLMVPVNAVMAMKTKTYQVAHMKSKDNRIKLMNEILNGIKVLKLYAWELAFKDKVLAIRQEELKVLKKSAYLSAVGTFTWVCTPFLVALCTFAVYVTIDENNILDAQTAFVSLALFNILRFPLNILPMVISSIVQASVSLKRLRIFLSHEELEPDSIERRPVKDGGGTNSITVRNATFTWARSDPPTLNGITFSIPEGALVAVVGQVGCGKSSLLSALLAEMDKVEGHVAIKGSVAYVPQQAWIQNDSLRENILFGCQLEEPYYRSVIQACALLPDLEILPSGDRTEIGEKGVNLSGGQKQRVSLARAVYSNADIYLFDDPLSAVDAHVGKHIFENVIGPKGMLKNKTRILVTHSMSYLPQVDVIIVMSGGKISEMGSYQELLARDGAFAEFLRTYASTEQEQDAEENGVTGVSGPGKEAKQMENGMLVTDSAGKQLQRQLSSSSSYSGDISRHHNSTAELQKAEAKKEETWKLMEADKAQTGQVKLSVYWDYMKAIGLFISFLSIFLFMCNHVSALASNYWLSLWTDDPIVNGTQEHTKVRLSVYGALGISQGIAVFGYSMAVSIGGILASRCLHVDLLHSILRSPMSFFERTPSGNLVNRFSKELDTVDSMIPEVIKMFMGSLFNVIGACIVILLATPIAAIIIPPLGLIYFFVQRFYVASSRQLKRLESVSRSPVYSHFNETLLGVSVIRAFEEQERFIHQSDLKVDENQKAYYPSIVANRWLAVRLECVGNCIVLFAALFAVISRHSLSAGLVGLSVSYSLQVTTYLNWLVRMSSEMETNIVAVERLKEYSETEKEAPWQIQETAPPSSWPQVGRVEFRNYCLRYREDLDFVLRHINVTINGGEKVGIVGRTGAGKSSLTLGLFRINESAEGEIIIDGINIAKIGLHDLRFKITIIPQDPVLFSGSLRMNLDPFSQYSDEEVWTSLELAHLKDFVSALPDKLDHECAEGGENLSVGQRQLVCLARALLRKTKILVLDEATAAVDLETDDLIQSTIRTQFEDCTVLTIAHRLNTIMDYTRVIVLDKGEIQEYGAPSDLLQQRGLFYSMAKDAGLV
method.notes: Calcein-AM fluorescence accumulation assay, flow cytometry, CEM-MRP1 cells
Format: cell-based
stated.conditions: antiviral drug at 100 μM, calcein-AM 0.25 μM
property.name: Fluorescence ratio (MFI treated/MFI mock cells), calcein

Use these answered entries as a reference point.
[[record]]
compound = "COC(=O)N[C@H](C(=O)N[C@@H](Cc1ccccc1)[C@@H](O)CN(Cc1ccc(-c2ccccn2)cc1)NC(=O)[C@@H](NC(=O)OC)C(C)(C)C)C(C)(C)C [atazanavir]"
endpoint_result = 2.54

[[record]]
compound = "CC(C)CN(C[C@@H](O)[C@H](Cc1ccccc1)NC(=O)O[C@H]1CCOC1)S(=O)(=O)c1ccc(N)cc1 [amprenavir]"
endpoint_result = 3.49

[[record]]
compound = "CC(C)(C)NC(=O)[C@@H]1C[C@@H]2CCCC[C@@H]2CN1C[C@@H](O)[C@H](Cc1ccccc1)NC(=O)[C@H](CC(N)=O)NC(=O)c1ccc2ccccc2n1 [saquinavir]"
endpoint_result = 3.94

[[record]]
compound = "O=C1Nc2ccc(Cl)cc2[C@@](C#CC2CC2)(C(F)(F)F)O1 [efavirenz]"
endpoint_result = 4.38


[a] Cc1cccc(C)c1OCC(=O)N[C@@H](Cc1ccccc1)[C@@H](O)C[C@H](Cc1ccccc1)NC(=O)[C@H](C(C)C)N1CCCNC1=O [lopinavir]
[b] CC(C)(C)NC(=O)[C@@H]1CN(Cc2cccnc2)CCN1C[C@@H](O)C[C@@H](Cc1ccccc1)C(=O)N[C@H]1c2ccccc2C[C@H]1O [indinavir]
[c] Cc1ccnc2c1NC(=O)c1cccnc1N2C1CC1 [nevirapine]
input: In this exercise, place the 3 compounds in ascending sequence of their recorded Fluorescence ratio (MFI treated/MFI mock cells), calcein. Put the labels in the order asked and list them.
output: c, b, a
(c: 1.23, b: 2.11, a: 4.20)

The reported numbers originate from paper PMC5031918.
